molecular target: UDP-glucuronosyltransferase 1A1 (Homo sapiens); experiment: Activity of human recombinant UGT1A1 expressed in insect cells assessed as intrinsic clearance for enzyme mediated glucuronidation per mg protein by LC-MS/MS method; format: ADME
Sequence (P22309 whole entry): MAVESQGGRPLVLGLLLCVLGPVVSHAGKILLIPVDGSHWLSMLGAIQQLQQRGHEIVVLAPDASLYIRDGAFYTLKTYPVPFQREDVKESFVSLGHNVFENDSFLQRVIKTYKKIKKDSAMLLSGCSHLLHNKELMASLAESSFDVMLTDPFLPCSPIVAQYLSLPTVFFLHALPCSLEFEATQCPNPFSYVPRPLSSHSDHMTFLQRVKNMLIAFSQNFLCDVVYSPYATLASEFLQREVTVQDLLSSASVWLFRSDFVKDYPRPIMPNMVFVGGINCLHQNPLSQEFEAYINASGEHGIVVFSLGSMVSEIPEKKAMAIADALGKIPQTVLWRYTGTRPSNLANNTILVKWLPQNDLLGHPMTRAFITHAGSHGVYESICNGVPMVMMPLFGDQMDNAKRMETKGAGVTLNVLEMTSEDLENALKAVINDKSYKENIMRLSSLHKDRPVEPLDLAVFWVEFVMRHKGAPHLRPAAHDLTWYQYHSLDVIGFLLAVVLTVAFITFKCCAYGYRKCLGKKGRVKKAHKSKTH

| SMILES STRUCTURE | TESTED ON | CL(high) / µL/min/mg |
| --- | --- | --- |
| CC1=NN(c2ccccc2)C(=O)C1 | UDP-glucuronosyltransferase 1A1 (Homo sapiens) | 0.2 |

====

test: Drug metabolism in human kidney microsomes assessed as drug glucuronidation in absence of BSA by LC-MS/MS method; format: ADME; conditions: read-out: KmH

| MOLECULE | UNIT SYMBOL | Km |
| --- | --- | --- |
| CC1=NN(c2ccccc2)C(=O)C1 [EDARAVONE] | µM | 7.4 |
